Data origin: paper PMC6181373

System: HDL particle
Assay: SPRi
Details: 5' disulfide, aptamer on gold chip, 10 mM HEPES, 120 mM NaCl, 10 mM KCl, 5 mM MgCl2, pH 7.4, targets in PBS with 0.1% Tween, random-DNA signal subtracted, temperature …
ATTRIBUTE_MEASURED: Kd (nM)
Response body: numeric value in nM, unit text excluded.

PRIMARY_SEQUENCE | Kd / nM
AACTACATGGTATGTGGTGAACTAACCTTAATTTACCCTTGTTTTATCATTTCCATCATAGCTGACGTACAATGTACCC [LDL-A12] | 9.69
AACTACATGGTATGTGGTGAACTGTCAGCTTCTTCTATATAATTCACCTTGCCTCTCGTTCCTGACGTACAATGTACCC [LDL-A2] | 7.25
AACTACATGGTATGTGGTGAACTACCTCGATTTTATATTATTTCGCTTACCAACAACTGCAGAGACGTACAATGTACCC [LDL-A1] | 8.26

Kindly consider the entry below.
Exercise: Please list Kd recorded for the sequence AACTACATGGTATGTGGTGAACTAAACCATTCTTGTCTCGCATTTTTCTCTTTTATATTATTTGACGTACAATGTACCC [LDL-A38]
Solution: 11.5
